# Target or test system: Chromo domain-containing protein 1 (Saccharomyces cerevisiae (strain ATCC 204508 / S288c) (Baker's yeast)) (UniProt P32657)
# Sequence (P32657 whole entry, the tested form may be a part): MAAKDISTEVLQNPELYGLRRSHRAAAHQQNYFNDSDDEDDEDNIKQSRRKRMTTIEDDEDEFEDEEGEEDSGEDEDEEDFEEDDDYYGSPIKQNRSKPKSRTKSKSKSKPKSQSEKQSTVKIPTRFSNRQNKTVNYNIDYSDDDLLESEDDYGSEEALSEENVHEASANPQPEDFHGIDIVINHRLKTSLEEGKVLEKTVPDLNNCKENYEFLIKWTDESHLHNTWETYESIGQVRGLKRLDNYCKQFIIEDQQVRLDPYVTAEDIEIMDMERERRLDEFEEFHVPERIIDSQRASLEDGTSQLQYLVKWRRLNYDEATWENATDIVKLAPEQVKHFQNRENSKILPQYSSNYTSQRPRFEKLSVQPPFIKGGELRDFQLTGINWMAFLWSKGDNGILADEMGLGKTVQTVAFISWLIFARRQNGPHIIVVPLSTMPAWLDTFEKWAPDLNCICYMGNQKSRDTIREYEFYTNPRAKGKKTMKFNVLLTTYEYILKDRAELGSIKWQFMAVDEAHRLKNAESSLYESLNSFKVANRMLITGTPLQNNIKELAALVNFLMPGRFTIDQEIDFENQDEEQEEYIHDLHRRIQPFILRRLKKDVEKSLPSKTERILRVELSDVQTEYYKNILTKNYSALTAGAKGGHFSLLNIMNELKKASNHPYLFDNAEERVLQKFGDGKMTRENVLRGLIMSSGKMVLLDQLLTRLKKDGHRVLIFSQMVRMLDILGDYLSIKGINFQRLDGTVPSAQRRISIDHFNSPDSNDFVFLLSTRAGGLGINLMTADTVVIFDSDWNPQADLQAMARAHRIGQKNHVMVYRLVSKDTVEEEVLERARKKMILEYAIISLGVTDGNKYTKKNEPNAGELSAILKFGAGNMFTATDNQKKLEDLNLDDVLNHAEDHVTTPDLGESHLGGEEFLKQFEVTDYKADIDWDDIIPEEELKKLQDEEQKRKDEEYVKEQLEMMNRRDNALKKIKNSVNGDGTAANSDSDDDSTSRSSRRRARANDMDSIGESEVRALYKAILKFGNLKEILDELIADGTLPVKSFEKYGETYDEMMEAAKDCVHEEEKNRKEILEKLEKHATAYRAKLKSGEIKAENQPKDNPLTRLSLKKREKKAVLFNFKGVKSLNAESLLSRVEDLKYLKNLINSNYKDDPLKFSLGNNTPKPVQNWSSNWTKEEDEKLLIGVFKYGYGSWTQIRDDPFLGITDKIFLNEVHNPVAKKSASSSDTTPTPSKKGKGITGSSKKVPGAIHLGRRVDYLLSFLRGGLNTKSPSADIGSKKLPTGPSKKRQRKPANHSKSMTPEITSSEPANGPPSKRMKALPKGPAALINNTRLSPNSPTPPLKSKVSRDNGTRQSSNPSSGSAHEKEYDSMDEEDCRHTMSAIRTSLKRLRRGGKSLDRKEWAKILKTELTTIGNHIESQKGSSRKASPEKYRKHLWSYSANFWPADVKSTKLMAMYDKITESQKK
# Method description: ScCHD-1 Enzyme Inhibition Assay
# Format: functional
# Set-up: scale not given: in the data most compounds retested in dose-response had high values
# Conditions used: 30 µM
Attribute measured: Percent Effect (%)
Numbers only; they are read as %.

[Q] Provide one value: measured Percent Effect of CN1CCC(C(=O)NCc2nncn2-c2ccccc2)CC1=O (configuration not stated)
[A] -2.07

[Q] Supply measured Percent Effect of Cc1c[nH]nc1C1CCN(S(=O)(=O)N(C)C)CC1 in your reply.
[A] -2.55

[Q] Look up and report measured Percent Effect for this entry: Cc1nn(C)c(C)c1C1CCCN1CC(=O)NC(C1CC1)C1CC1 (configuration not stated)
[A] -9.75

[Q] Provide one value: measured Percent Effect of Cc1cc(C(=O)N2CCCC2c2nnc3n2CCCCC3)no1 (configuration not stated)
[A] -5.42

[Q] Please report Percent Effect for the following compound: CCN1C(=O)CCC12CCCN(Cc1nccs1)CC2 (configuration not stated)
[A] -1.64

[Q] Input CCN(CC)C(=O)CN(C)C1CCc2ccccc21 (configuration not stated) , output reported Percent Effect.
[A] -9.79

[Q] Consider the compound COc1cccc(CNCc2nnc3n2CC(C(F)(F)F)CC3)c1 (configuration not stated) and give its recorded Percent Effect.
[A] -13

[Q] Write down Percent Effect measured for item Cn1nc(C(=O)NCc2ccccn2)c2c1CCS(=O)(=O)C2
[A] -9.63

[Q] Quickly give me recorded Percent Effect for Cc1nn(C)c2c(N3CCN(C(=O)C4CCC4)CC3)ncnc12
[A] -9.22

[Q] Return Percent Effect (reported value) for this compound: CNC(=O)C1CCN(C(=O)CCn2cccn2)CC1
[A] 6.84

[Q] Give Percent Effect for c1nc2c(c(-c3ccsc3)n1)CCN(Cc1ccoc1)CC2
[A] -0.614

[Q] Read off the recorded Percent Effect for Cc1csc(C2CCCN(C(=O)c3ccc(=O)n(C)n3)C2)n1 (configuration not stated)
[A] -2.21
